# Test system: biotinyl-Trp-oxazolone
# Method Summary: self-aminoacylation, catalytic enhancement (BWO) (fold over background); higher = more active; k-Seq, kA / k0A0; sequences stand for … in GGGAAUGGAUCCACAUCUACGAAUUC…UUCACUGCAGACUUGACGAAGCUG
This sample holds only a part of the variants without activity.
Measure Name: self-aminoacylation
# print the numeric value only

**Query** Provide only the value of recorded self-aminoacylation for AUACCCCUGGUCAUCGAGUGA [Fam2.1 aminoacylation ribozyme variant]
**Result** 7.04

**Query** Provide only the value of recorded self-aminoacylation for AUUAACCUAGGUCAUUGGGUG [Fam2.2 aminoacylation ribozyme variant]
**Result** 2.85

**Query** Provide only the value of recorded self-aminoacylation for AUUAACCUGGUCAUCUAGUGA [Fam2.1 aminoacylation ribozyme variant]
**Result** 11.1

**Query** Provide only the value of recorded self-aminoacylation for CCACACUUCAUGCAAUCGGGC [Fam1B.1 aminoacylation ribozyme variant]
**Result** 1.77

**Query** Provide only the value of recorded self-aminoacylation for CUACUGCAAACAAUCGUUCUG [Fam1A.1 aminoacylation ribozyme variant]
**Result** 0.574

**Query** Provide only the value of recorded self-aminoacylation for AUUAACCUAGGUCAUGGGGUG [Fam2.2 aminoacylation ribozyme variant]
**Result** 3.44

**Query** Provide only the value of recorded self-aminoacylation for AUUACGCUGAUCAUCGAGUGA [Fam2.1 aminoacylation ribozyme variant]
**Result** 6.11

**Query** Provide only the value of recorded self-aminoacylation for AUUACCCUGGUCUUCGGGUGA [Fam2.1 aminoacylation ribozyme variant]
**Result** 9.66

**Query** Provide only the value of recorded self-aminoacylation for CUACGUCAAACUAUCGGUCUG [Fam1A.1 aminoacylation ribozyme variant]
**Result** 1.58

**Query** Provide only the value of recorded self-aminoacylation for AUUCACCUGGGUCAUCGGGAG [Fam2.2 aminoacylation ribozyme variant]
**Result** 2.29

**Query** Provide only the value of recorded self-aminoacylation for CUUUCCCUGGUCAUCGAGUGA [Fam2.1 aminoacylation ribozyme variant]
**Result** 10.6

**Query** Provide only the value of recorded self-aminoacylation for AUUACCCUGGUCAGCAAGUGA [Fam2.1 aminoacylation ribozyme variant]
**Result** 4.8

**Query** Provide only the value of recorded self-aminoacylation for AUUCAGCAAGGUCAUCGGGUG [Fam2.2 aminoacylation ribozyme variant]
**Result** 7

**Query** Provide only the value of recorded self-aminoacylation for AAGUUUGCUAAUCGUCGCAAU [Fam3.1 aminoacylation ribozyme variant]
**Result** 1.03

**Query** Provide only the value of recorded self-aminoacylation for GUUACUCUGGUCAUCGAGUGA [Fam2.1 aminoacylation ribozyme variant]
**Result** 9.78

**Query** Provide only the value of recorded self-aminoacylation for AUUACCCUGAUCAUUGAGUGA [Fam2.1 aminoacylation ribozyme variant]
**Result** 15.6

**Query** Provide only the value of recorded self-aminoacylation for CAACACUUUAAGCAAUCGGUC [Fam1B.1 aminoacylation ribozyme variant]
**Result** 0.886

**Query** Provide only the value of recorded self-aminoacylation for AAGUUUGUUAAUACUCGCAAG [Fam3.1 aminoacylation ribozyme variant]
**Result** 0.7

Origin of measurements: the supplement of paper PMC9233669
